Where these numbers come from: patent US8846601B2

# measurement_target: hMC1-R (Homo sapiens (Human))
# Sequence (Q01726 whole entry): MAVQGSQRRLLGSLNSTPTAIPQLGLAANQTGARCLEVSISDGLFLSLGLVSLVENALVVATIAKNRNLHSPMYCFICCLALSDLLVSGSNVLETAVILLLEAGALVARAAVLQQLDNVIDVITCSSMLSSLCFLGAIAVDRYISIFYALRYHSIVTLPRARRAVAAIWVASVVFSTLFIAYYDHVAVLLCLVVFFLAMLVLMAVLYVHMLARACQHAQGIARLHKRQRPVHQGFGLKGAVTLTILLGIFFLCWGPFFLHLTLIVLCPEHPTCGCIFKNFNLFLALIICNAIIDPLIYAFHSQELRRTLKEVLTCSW
# assay_summary: Functional assay (EC50 and intrinsic activity) at hMC1-R
Peptide text beside a SMILES is read from it.
property_label: pEC50
Please keep in mind that pEC50 is minus log10 of the molar concentration; only the number is needed.

Consider the worked cases shown below.
CC(=O)N[C@@H](CCCNC(=N)N)C(=O)N[C@H]1CCCCNC(=O)C[C@@H](C(N)=O)NC(=O)[C@H](Cc2c[nH]c3ccccc23)NC(=O)[C@H](CCCNC(=N)N)NC(=O)[C@@H](Cc2ccccc2)NC(=O)[C@H](CC(N)=O)NC1=O [compound 155] (HELM PEPTIDE1{[ac].R.K.N.[dF].R.W.D.[am]}$PEPTIDE1,PEPTIDE1,3:R3-8:R3$$$V2.0): 7.85
CC(=O)N[C@@H](CCCNC(=N)N)C(=O)N[C@H]1CCCCNC(=O)C[C@@H](C(N)=O)NC(=O)[C@H](Cc2ccc3ccccc3c2)NC(=O)[C@H](CCCNC(=N)N)NC(=O)[C@@H](Cc2ccccc2)NC(=O)[C@H](CC(N)=O)NC1=O [compound 162] (HELM PEPTIDE1{[ac].R.K.N.[dF].R.[O=C([C@H](Cc1ccc2ccccc2c1)N[*:1])[*:2]].D.[am]}$PEPTIDE1,PEPTIDE1,3:R3-8:R3$$$V2.0): 7.66

INPUT: pEC50 for CC(=O)N[C@@H](CCCNC(=N)N)C(=O)N[C@H]1CCC(=O)NCCC[C@@H](C(N)=O)NC(=O)[C@H](Cc2c[nH]c3ccccc23)NC(=O)[C@H](CCCNC(=N)N)NC(=O)[C@@H](Cc2ccccc2)NC(=O)[C@H](CC(N)=O)NC1=O ?
OUTPUT: 7.89

###

# measurement_target: hMC4-R (Homo sapiens (Human), UniProt P32245)
# Sequence (P32245 whole entry): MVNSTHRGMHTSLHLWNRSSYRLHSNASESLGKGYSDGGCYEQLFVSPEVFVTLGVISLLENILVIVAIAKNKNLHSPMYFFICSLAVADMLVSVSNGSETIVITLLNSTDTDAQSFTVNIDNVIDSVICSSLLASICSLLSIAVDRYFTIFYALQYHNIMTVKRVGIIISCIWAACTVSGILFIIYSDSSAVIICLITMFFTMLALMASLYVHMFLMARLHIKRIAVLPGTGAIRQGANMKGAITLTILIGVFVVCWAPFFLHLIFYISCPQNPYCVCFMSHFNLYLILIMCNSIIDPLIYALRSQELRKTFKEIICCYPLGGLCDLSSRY
# assay_summary: Competitive inhibition binding assay using [I125]-NDP-α-MSH, hMC4-R membranes
# condition_summary: read-out: hMC4-R (Ki)
Peptide text beside a SMILES is read from it.
property_label: pKi
Please keep in mind that pKi is minus log10 of the molar concentration; only the number is needed.

Consider the worked cases shown below.
CC(=O)N[C@@H](CCCNC(=N)N)C(=O)N[C@H]1CCCCNC(=O)C[C@@H](C(N)=O)NC(=O)[C@H](Cc2ccc3ccccc3c2)NC(=O)[C@H](CCCNC(=N)N)NC(=O)[C@@H](Cc2ccccc2)NC(=O)[C@H](CC(N)=O)NC1=O [compound 162] (HELM PEPTIDE1{[ac].R.K.N.[dF].R.[O=C([C@H](Cc1ccc2ccccc2c1)N[*:1])[*:2]].D.[am]}$PEPTIDE1,PEPTIDE1,3:R3-8:R3$$$V2.0): 8.30
CC(=O)N[C@@H](CCCNC(=N)N)C(=O)N[C@H]1CCCCNC(=O)C[C@@H](C(N)=O)NC(=O)[C@H](Cc2c[nH]c3ccccc23)NC(=O)[C@H](CCCNC(=N)N)NC(=O)[C@@H](Cc2ccccc2)NC(=O)[C@H](CC(N)=O)NC1=O [compound 155] (HELM PEPTIDE1{[ac].R.K.N.[dF].R.W.D.[am]}$PEPTIDE1,PEPTIDE1,3:R3-8:R3$$$V2.0): 8.30
CC(=O)N[C@H](CCCNC(=N)N)C(=O)N[C@H]1CC(=O)NCCCC[C@@H](C(N)=O)NC(=O)[C@H](Cc2c[nH]c3ccccc23)NC(=O)[C@H](CCCNC(=N)N)NC(=O)[C@@H](Cc2ccccc2)NC(=O)[C@H](CCC(N)=O)NC1=O: 7.35
CC(=O)N[C@@H](CCCNC(=N)N)C(=O)N[C@H]1CCCC(=O)NCC[C@@H](C(N)=O)NC(=O)[C@H](Cc2c[nH]c3ccccc23)NC(=O)[C@H](CCCNC(=N)N)NC(=O)[C@@H](Cc2ccccc2)NC(=O)[C@H](CC(N)=O)NC1=O [compound 160] (HELM PEPTIDE1{[ac].R.[O=C([C@H](CCCC(=O)[*:3])N[*:1])[*:2]].N.[dF].R.W.[Dab].[am]}$PEPTIDE1,PEPTIDE1,3:R3-8:R3$$$V2.0): 8.10

Please turn your attention to the following entry.
INPUT: pKi for CC(=O)N[C@@H](CCCNC(=N)N)C(=O)N[C@H]1CCNC(=O)CCC[C@@H](C(N)=O)NC(=O)[C@H](Cc2c[nH]c3ccccc23)NC(=O)[C@H](CCCNC(=N)N)NC(=O)[C@@H](Cc2ccccc2)NC(=O)[C@H](CCC(N)=O)NC1=O ?
OUTPUT: 8.40
